target: human NOP receptor (Homo sapiens); assay: Radioligand competition binding, [3H]N/OFQ, membranes of transfected CHO cells; conditions: read-out: Receptor Binding, Ki NOP
property measured: Ki (nM)

> print(dat)
                                   compound                        measured.on  property.measured  reported.value
1  CC(C)[C@@H](CN1CC[C@@](C)(c2cccc(O)c2)[C@@H](C)C1)NC(=O)[C@H]1Cc2ccc(O)cc2CN1 [JDTic, reference compound]  human NOP receptor (Homo sapiens)                 Ki            16.7

* * *

biological target: human DOP receptor (Homo sapiens); experiment: Radioligand competition binding, [3H]DPDPE, membranes of transfected CHO cells; settings: read-out: Receptor Binding, Ki DOP
Below, each entry is listed alongside its reported Ki.
property measured: Ki (nM)

> print(dat)
                                   compound  property.measured  operator  reported.value
1  Cc1cccc2c1CC[C@H](CN1CCC(c3c(Cl)cccc3Cl)CC1)C[C@@H]2O [SB-612111, reference compound]                 Ki         =            2890
2  CC(C)[C@@H](CN1CCC(c2cccc(CN)c2)CC1)NC(=O)[C@H]1Cc2ccccc2CN1                 Ki         >           10000
3  CC(C)[C@@H](CN1CCC(c2cccc(CNC(=O)[C@@H](N)CCCNC(=N)N)c2)CC1)NC(=O)[C@H]1Cc2ccccc2CN1                 Ki         >           10000
4  CC(C)[C@@H](CN1CCC(c2cccc(O)c2)CC1)NC(=O)[C@@H](N)CCCCN                 Ki         >           10000
5  CC(C)[C@@H](CN1CCC(c2cccc(CN)c2)CC1)NC(=O)[C@H]1Cc2ccc(O)cc2CN1                 Ki         =             133
6  CC(C)[C@@H](CN1CCC(c2cccc(O)c2)CC1)NC(=O)[C@H]1Cc2ccc(O)cc2CN1                 Ki         =            19.6
7  CC(C)[C@@H](CN1CCC(c2cccc(C#N)c2)CC1)NC(=O)[C@H]1Cc2ccccc2CN1                 Ki         >           10000
8  CC(C)[C@@H](CN1CCC(N2CCc3ccccc32)CC1)NC(=O)[C@H]1Cc2ccc(O)cc2CN1                 Ki         =             138
9  CC(C)[C@@H](CN1CCC(c2cccc(O)c2)CC1)NC(=O)[C@H]1Cc2ccc(CN)cc2CN1                 Ki         =            1570

* * *

molecular target: human KOP receptor (Homo sapiens, UniProt P41145); experiment: Radioligand competition binding, [3H]U69,593, membranes of transfected CHO cells (Kappa-CN); conditions: read-out: Receptor Binding, Ki KOP
property measured: Ki (nM)

> print(dat)
                                   molecule                               measured.on  property.measured  unit.of.measure  reported.value
1  CC(C)[C@@H](CN1CCC(c2cccc(O)c2)CC1)NC(=O)[C@H]1Cc2ccc(O)cc2CN1  human KOP receptor (Homo sapiens, UniProt P41145)                 Ki               nM            1.14
2  Cc1cccc2c1CC[C@H](CN1CCC(c3c(Cl)cccc3Cl)CC1)C[C@@H]2O [SB-612111, reference compound]  human KOP receptor (Homo sapiens, UniProt P41145)                 Ki               nM             541

Values from paper PMC5643385
